Measured values drawn from patent US20230025129A1 for this set.

# system name: T1, mouse matriptase-2 ECD protein his tag (mouse, UniProt Q9DBI0 80-811)
# T1 construct: aa 80-811 of Q9DBI0 with C-terminal linker and His tag; also called mouse MTP-2 ECD; moMTP-2
# T1 sequence: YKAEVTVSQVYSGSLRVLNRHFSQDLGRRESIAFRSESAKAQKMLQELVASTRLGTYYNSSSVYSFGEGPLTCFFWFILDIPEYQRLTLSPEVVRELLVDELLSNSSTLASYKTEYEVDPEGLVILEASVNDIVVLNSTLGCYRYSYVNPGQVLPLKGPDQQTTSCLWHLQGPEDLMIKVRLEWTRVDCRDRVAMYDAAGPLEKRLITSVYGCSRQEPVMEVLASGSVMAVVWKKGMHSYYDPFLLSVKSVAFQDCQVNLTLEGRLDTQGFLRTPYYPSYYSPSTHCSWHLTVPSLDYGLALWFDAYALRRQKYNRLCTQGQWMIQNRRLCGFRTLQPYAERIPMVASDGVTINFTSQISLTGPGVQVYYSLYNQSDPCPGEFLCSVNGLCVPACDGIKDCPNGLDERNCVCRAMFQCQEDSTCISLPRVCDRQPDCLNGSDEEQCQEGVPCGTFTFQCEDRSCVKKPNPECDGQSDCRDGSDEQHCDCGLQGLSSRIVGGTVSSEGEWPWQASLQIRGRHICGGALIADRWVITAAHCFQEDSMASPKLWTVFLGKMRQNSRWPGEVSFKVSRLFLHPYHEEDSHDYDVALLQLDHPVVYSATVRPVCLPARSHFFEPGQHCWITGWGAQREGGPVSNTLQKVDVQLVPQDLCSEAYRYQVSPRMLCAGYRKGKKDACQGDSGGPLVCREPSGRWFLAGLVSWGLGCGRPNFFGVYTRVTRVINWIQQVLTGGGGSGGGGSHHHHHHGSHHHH
# method: SPR (Biacore 8K), huIgG4PE captured on anti-human Fc, MTP-2 ECD as analyte, 1:1 fit
parameter measured: kon (M⁻¹ s⁻¹)
Write the number in M⁻¹ s⁻¹ without appending the unit.

Check out these entries, answers already filled in.
{"columns": ["binder", "value unit", "kon"],
 "data": [
  ["NORI-012 (antibody, human IgG4 S228P, lambda, V domains shown, human IgG4PE, lambda) VH: EVQLVESGGGLVQPGRSLRLSCAASGFTFDDHVMYWVRQAPGKGLEWVSGISWNSDTIGYADAVKGRFTISRDNAKNVLYLHMNSLRPEDTALYYCAREKDGDFYYNYFVMDVWGQGTTVTVSP VL: QSALTQPPSASGSPGQSVTISCTGTSSDVGFYNFVSWYQQHPDKAPKVMIYEVSKRPSGVPDRFSGSKSGNTASLTVSGLQAEDEADYYCSSYAGSNKVVFGGGTKLTVLG", "M⁻¹ s⁻¹", 11600],
  ["NORI-008 (antibody, human IgG4 S228P, kappa, V domains shown, human IgG4PE, kappa, in the in vitro assays; a mouse IgG1 format was used in one in vivo study only; also called NORI-008 hulgG4PE; NORI-008 IgG) VH: QVQLQESGPGLVKPSETLSLTCSVSGGSVSSGRYYWTWIRQPPGKGLEWIGYISNSGNTNYNPSLKSRVTISLDTSKKQFSLSLSAVTAADTAVYYCARGFIYDYWFDPWGQGSLVTVSS VL: DSQMTQSPSSLSASVGDRVTITCQASQDIDNYLNWYQQRPGKAPKLLIYDASKLETGVPSRFSGSGSGTDFTFTISSLQPEDFATYYCQQYGNLPITFGQGTRLDIKR", "M⁻¹ s⁻¹", 237000],
  ["NORI-009 (antibody, human IgG4 S228P, lambda, V domains shown, human IgG4PE, lambda) VH: EVQLVESGGGLVQPGRSLRLSCAASGFTFNDHVIYWVRQVPGKGLEWVSTISWNSDTIAYADSVKGRFTISRDNAKNALYLQMNSLRTEDTALYYCAREKDGDFYYDYFAMDVWGQGTTVTVSS VL: QSALTQPPSASGSPGQSVTLSCTGTSSDVGYYNYVSWYLQHPGKAPKLMIYEVSKRPSGVPDRFSGSKSANTASLTVSGLQAEDEADYYCSSYAGSNKVVFGGGTKVTVLG", "M⁻¹ s⁻¹", 35400]
]}

Then there is this binder:
Specify kon for NORI-013 (antibody, human IgG4 S228P, lambda, V domains shown, human IgG4PE, lambda) VH: EVQLVESGGGLIQAGRSLRLSCAASGFTFDEHVIYWVRQIPGKGLEWISSISWKSDIIAYADSVKGRFTISRDNAKNALYLQMNSLRAEDTALYYCAREKDGDFYYYYFAMDVWGQGTTVTVSS VL: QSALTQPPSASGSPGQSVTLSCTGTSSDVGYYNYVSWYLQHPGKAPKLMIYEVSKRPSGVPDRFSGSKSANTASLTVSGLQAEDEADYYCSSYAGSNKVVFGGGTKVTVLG and stop. 10500
